Assay: compound effects on differentiated 3T3-L1 adipocyte viability – cell-based, 3T3-L1 adipocytes, calcein-AM fluorescence, 48 h, basal, profiling panel (AID 1163); also: test concentration not given here
Details: 3T3-L1 adipocytes viability, higher = more signal
readout.kind: z-score
Reply with just the number.

Write down z-score measured for item Cc1ccc(S[C@]2(C(=O)NCC(C)C)CC(=O)N(Cc3ccccc3)[C@@H]2c2ccc(CO)cc2)cc1
0.38

Could you please provide reported z-score for COCCOC(=O)N1C(=O)[C@@]2(c3cc(C#CC4(O)CCCCCC4)ccc31)[C@H](c1ccc(O)cc1)N1[C@H](c3ccccc3)[C@H](c3ccccc3)OC(=O)[C@H]1[C@@H]2C(=O)N1CCc2cc(OC)c(OC)cc2C1 ? Thanks!
0.0633

Fill in z-score for record COc1ccc([Si](C)(C)[C@@H]2[C@@H](CCO)O[C@]3(C(=O)N(Cc4cccc(N(C=O)c5ccccc5)c4)c4ccccc43)[C@H]2C)cc1
1.72

Give me measured z-score, please, for this compound: COc1ccc(CCNC(=O)[C@@]2(C)c3ccccc3C(=O)N(Cc3ccccc3)[C@H]2c2ccc(CO)cc2)cc1
0.456

Provide measured z-score value, entry: CC(=O)NCCCC[C@@H]1NC(=O)[C@@H]2C[C@H](C(=O)NCc3ccc(F)cc3)[C@H](c3ccc(O)cc3)N2C1=O
0.347

For O=C1OCCC=C[C@H]2OC34C=CCN(c5ccc6ccccc6c5)C(=O)[C@H]3N(CCCCCCO)C(=O)[C@@H]4C12 (some centres not stated) , write its z-score.
-0.488

Respond only with z-score recorded for CN(C)CCCCCCNC(=O)[C@@H]1C[C@@H]2C(=O)N[C@@H](Cc3ccccc3)C(=O)N2[C@@H]1c1cccc(OCCO)c1
0.559

* * *

Biological target: NADPH oxidase 2 (Homo sapiens) (UniProt P04839)
Sequence (P04839 whole entry, looked up): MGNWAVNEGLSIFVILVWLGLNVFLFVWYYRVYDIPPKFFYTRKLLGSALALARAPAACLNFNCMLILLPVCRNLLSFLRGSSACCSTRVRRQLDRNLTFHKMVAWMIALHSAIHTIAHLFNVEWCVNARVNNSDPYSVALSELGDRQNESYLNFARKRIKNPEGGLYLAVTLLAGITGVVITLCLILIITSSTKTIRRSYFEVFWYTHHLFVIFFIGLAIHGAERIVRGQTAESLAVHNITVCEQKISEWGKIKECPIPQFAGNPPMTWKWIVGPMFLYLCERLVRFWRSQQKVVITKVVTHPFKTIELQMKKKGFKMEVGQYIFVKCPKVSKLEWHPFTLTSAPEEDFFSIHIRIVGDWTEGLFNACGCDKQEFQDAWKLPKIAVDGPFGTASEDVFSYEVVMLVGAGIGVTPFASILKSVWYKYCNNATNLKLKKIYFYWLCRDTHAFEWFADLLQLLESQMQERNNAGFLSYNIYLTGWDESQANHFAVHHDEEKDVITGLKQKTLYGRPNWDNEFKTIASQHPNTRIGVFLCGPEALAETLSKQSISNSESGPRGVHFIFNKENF
Test: compounds shifting NOX2 Amplex Red fluorescence – cell-based, HEK293-NOX2, PMA-stimulated, NOX inhibitor project, primary screen (AID 1159); also: test concentration not given here
Details: 45 min, higher = more signal, called active from +8 up or from −8 down
Calls of active or inactive are those of the source.
readout.kind: z-score

Identify z-score associated with the compound CCCNC(=O)[C@@]1(c2ccc([N+](=O)[O-])cc2)CC(=O)N(CC23CC4CC(CC(C4)C2)C3)[C@@H]1c1ccc(CO)cc1I
1.15 (inactive)

Identify the reported z-score for the following entry. CC1CC/C=C\[C@H]2OC34C=CCN(Cn5nnc6ccccc65)C(=O)[C@H]3N(CCCO)C(=O)[C@@H]4C2C(=O)O1 (some centres undefined)
0.923 (inactive)

Consider the compound CCOC(=O)C1=CC[C@@H](c2ccccc2)N(S(=O)(=O)c2ccc(C)cc2)[C@H]1c1ccc(C#N)cc1 . State its measured z-score.
0.428 (inactive)

Supply recorded z-score for CC(=O)NCCCC[C@@H]1NC(=O)[C@@H]2C[C@H](C(=O)NCc3ccc(F)cc3)[C@H](c3ccc(O)cc3)N2C1=O here.
0.647 (inactive)

Identify measured z-score corresponding to COC(=O)[C@@]1(Cc2ccccc2)[C@H]2c3cc(C(=O)N(C)C)n(Cc4ccccc4)c3C[C@H]2CN1C(=O)c1ccccc1
0.543 (inactive)

For C=C(COC)C(=O)CC[C@@H](OC(=O)c1ccccc1-c1ccccc1C(=O)O)c1ccc(CO)o1 , write its z-score.
-3.41 (inactive)

Name the recorded z-score of the compound listed here: O=C1OCC=C[C@H]2OC34C=CCN(Cc5ccccc5)C(=O)[C@H]3N(CCCO)C(=O)[C@@H]4[C@@H]12 (some centres undefined)
-0.548 (inactive)

Please report z-score for the following compound: C=CCCN(CC#C[C@H]1Oc2ccccc2S(=O)(=O)N2CCC[C@@H]12)S(=O)(=O)c1ccc(C)cc1
0.744 (inactive)

Identify measured z-score associated with COC(=O)c1c2oc(c1C(=O)OC)C(=O)N[C@H](Cc1ccccc1)Cn1nncc1C1(CCCCC1)NC(=O)N[C@H](CO)CC2
-2.86 (inactive)

Item COc1ccc(C#Cc2ccc3c(c2)[C@]2(C(=O)N3)[C@H](C(=O)N3CCN(c4ncccn4)CC3)[C@H]3C(=O)O[C@H](c4ccccc4)[C@H](c4ccccc4)N3[C@@H]2c2ccc(O)cc2)cc1 : provide z-score
1.25 (inactive)

Given the compound O=C1C2C=CC(C(O)c3ccc(-c4ccccc4)s3)N(Nc3ccccc3F)C2C(=O)N1c1ccccc1 (centres undefined) , write its reported z-score.
-0.49 (inactive)

Give me measured z-score, please, for this compound: COCCOC(=O)N1C(=O)[C@@]2(c3cc(C#CC4=CCCCC4)ccc31)[C@H](C(=O)N1CCN(c3ncccn3)CC1)[C@H]1C(=O)O[C@H](c3ccccc3)[C@H](c3ccccc3)N1[C@@H]2c1ccc(OCCO)cc1
0.977 (inactive)

Quickly give me recorded z-score for CN1C(=O)C2C=CC(C(O)C=Cc3ccc([N+](=O)[O-])cc3)N(N3CCCCC3)C2C1=O (centres undefined)
-0.542 (inactive)

Supply recorded z-score for C=C(CCCC)/C(=C/C[C@@H](OC(=O)c1ccncc1)c1ccc(CO)o1)c1cc(C(=O)OC)ccc1OC here.
-0.268 (inactive)

Where these numbers come from: PubChem BioAssay
